assay name: Solubility at pH 6.6 and pH 7.4
Assay type: physicochemical
condition context: pH 7.4, aqueous buffer; pH7.4; read-out: Solubility (μM) pH7.4
value type: solubility
Could you kindly put the unit after your number?

**Q:** Endpoint output: solubility of `CCn1nc2c(c1Nc1nc(-c3ccc(-n4cnc(C)c4)c(OC)c3)cs1)CCCC2` . Value?
**A:** 6.4 µM

====

System: Aβ38
assay name: Meso Scale Aβ38, 40, 42 triplex assay for potentiation of Aβ38 in SH-SY5Y-APP cells
Format: cell-based
condition context: Homo sapiens, Meso Scale triplex kit
value type: EC50

Recorded results for 2 compounds are shown here.
compound=CCn1nc2c(c1Nc1nc(-c3ccc(-n4cnc(C)c4)c(OC)c3)cs1)CCCC2 value_type=EC50 value_observed="> 500 nM"
compound=CCn1nc(C(C)(C)C)cc1Nc1nc(-c2ccc(-n3cnc(C)c3)c(F)c2)cs1 value_type=EC50 value_observed="> 500 nM"

Proceeding to the next compound to report its EC50.
**Q:** Report EC50 for `CCn1nc(C(C)(C)C)cc1Nc1nc(-c2ccc(-n3cnc(C)c3)c(OC)c2)cs1` tested on Aβ38.
**A:** 100 to 250 nM
